measurement-target: HIF1A
assay-protocol: HeLa, 100 nM transfected, 24 h, mean of 3
condition-parameters: ASO
Bases are written 5' to 3'; sugars and linkages follow in the same order, as letters with counts (s phosphorothioate, o phosphodiester; PS: all linkages phosphorothioate). C may stand for cytosine or 5-methylcytosine; the collection does not tell. l = locked nucleic acid (LNA); d = 2'-deoxy (DNA)
parameter: caspase activation (% of PBS control)

[
  {
    "ordered-residues": "TGGCAAGCATCCTGTA (sugars lldllddddddllddl, PS)",
    "data-value": 354
  },
  {
    "ordered-residues": "GCAAGCATCCTGT (sugars l2 d1 l1 d7 l2, PS)",
    "data-value": 319
  },
  {
    "ordered-residues": "TACTGCCTTCTTA (sugars l1 d1 l1 d8 l2, PS)",
    "data-value": 277
  },
  {
    "ordered-residues": "TACTGCCTTCTTA (sugars l1 d2 l1 d7 l2, PS)",
    "data-value": 156
  },
  {
    "ordered-residues": "TGGCAAGCATCCTGTA (sugars llldldddddddlddl, PS)",
    "data-value": 341
  },
  {
    "ordered-residues": "GTTACTGCCTTCTTAC (sugars llddlddddddldlll, PS)",
    "data-value": 220
  },
  {
    "ordered-residues": "GTTACTGCCTTCTTAC (sugars l1 d1 l2 d11 l1, PS)",
    "data-value": 156
  },
  {
    "ordered-residues": "GTTACTGCCTTCT (sugars l1 d10 l2, PS)",
    "data-value": 127
  },
  {
    "ordered-residues": "GTTACTGCCTTCTTAC (sugars l5 d6 l1 d2 l2, PS)",
    "data-value": 442
  },
  {
    "ordered-residues": "GTTACTGCCTTCTTAC (sugars lddllddddddldldl, PS)",
    "data-value": 207
  },
  {
    "ordered-residues": "TGGCAAGCATCCTGTA (sugars l1 d3 l1 d8 l3, PS)",
    "data-value": 172
  },
  {
    "ordered-residues": "TGGCAAGCATCCTGTA (sugars l1 d1 l3 d7 l4, PS)",
    "data-value": 395
  },
  {
    "ordered-residues": "GGCAAGCATCCTG (sugars l1 d2 l1 d8 l1, PS)",
    "data-value": 205
  },
  {
    "ordered-residues": "TTACTGCCTTCTT (sugars l4 d6 l1 d1 l1, PS)",
    "data-value": 308
  },
  {
    "ordered-residues": "TGGCAAGCATCCTGTA (sugars lddlddddddddldll, PS)",
    "data-value": 371
  },
  {
    "ordered-residues": "TGGCAAGCATCCT (sugars l1 d2 l1 d7 l2, PS)",
    "data-value": 157
  },
  {
    "ordered-residues": "CAAGCATCCTGTA (sugars l1 d2 l1 d8 l1, PS)",
    "data-value": 101
  },
  {
    "ordered-residues": "GTTACTGCCTTCTTAC (sugars ldldlddddddddddl, PS)",
    "data-value": 175
  },
  {
    "ordered-residues": "TGGCAAGCATCCTGTA (sugars l1 d12 l3, PS)",
    "data-value": 217
  },
  {
    "ordered-residues": "GTTACTGCCTTCTTAC (sugars ldlllddddddddldl, PS)",
    "data-value": 438
  },
  {
    "ordered-residues": "GTTACTGCCTTCT (sugars l2 d1 l1 d6 l3, PS)",
    "data-value": 183
  },
  {
    "ordered-residues": "TGGCAAGCATCCTGTA (sugars l5 d7 l4, PS)",
    "data-value": 358
  },
  {
    "ordered-residues": "TGGCAAGCATCCTGTA (sugars l1 d2 l2 d6 l5, PS)",
    "data-value": 366
  },
  {
    "ordered-residues": "TGGCAAGCATCCTGTA (sugars l1 d13 l2, PS)",
    "data-value": 170
  },
  {
    "ordered-residues": "GGCAAGCATCCTG (sugars l1 d1 l2 d6 l3, PS)",
    "data-value": 495
  },
  {
    "ordered-residues": "TGGCAAGCATCCTGTA (sugars llldlddddddldldl, PS)",
    "data-value": 350
  },
  {
    "ordered-residues": "TTACTGCCTTCTT (sugars l4 d8 l1, PS)",
    "data-value": 202
  },
  {
    "ordered-residues": "TGGCAAGCATCCTGTA (sugars l4 d9 l1 d1 l1, PS)",
    "data-value": 425
  },
  {
    "ordered-residues": "ACTGCCTTCTTAC (sugars l4 d6 l3, PS)",
    "data-value": 410
  },
  {
    "ordered-residues": "TGGCAAGCATCCTGTA (sugars lldllddddddllldl, PS)",
    "data-value": 474
  },
  {
    "ordered-residues": "GTTACTGCCTTCTTAC (sugars l2 d1 l1 d7 l5, PS)",
    "data-value": 335
  },
  {
    "ordered-residues": "GGCAAGCATCCTG (sugars l1 d1 l1 d7 l3, PS)",
    "data-value": 721
  },
  {
    "ordered-residues": "CAAGCATCCTGTA (sugars l1 d9 l1 d1 l1, PS)",
    "data-value": 92.1
  },
  {
    "ordered-residues": "GTTACTGCCTTCTTAC (sugars l3 d11 l2, PS)",
    "data-value": 136
  },
  {
    "ordered-residues": "GTTACTGCCTTCTTAC (sugars lddldddddddlldll, PS)",
    "data-value": 151
  },
  {
    "ordered-residues": "GTTACTGCCTTCTTAC (sugars l5 d6 l5, PS)",
    "data-value": 624
  },
  {
    "ordered-residues": "TGGCAAGCATCCT (sugars l3 d7 l3, PS)",
    "data-value": 249
  },
  {
    "ordered-residues": "GGCAAGCATCCTG (sugars l3 d7 l3, PS)",
    "data-value": 632
  },
  {
    "ordered-residues": "GTTACTGCCTTCTTAC (sugars ldldlddddddllddl, PS)",
    "data-value": 282
  },
  {
    "ordered-residues": "TGGCAAGCATCCTGTA (sugars ldldlddddddlldll, PS)",
    "data-value": 263
  },
  {
    "ordered-residues": "GTTACTGCCTTCTTAC (sugars l1 d10 l2 d1 l2, PS)",
    "data-value": 136
  },
  {
    "ordered-residues": "GTTACTGCCTTCTTAC (sugars lddlldddddddlldl, PS)",
    "data-value": 374
  }
]
